- SYSTEM_TESTED: PKA-N-HiBiT (Homo sapiens)
- METHOD: SDR assay, PKA-N-HiBiT
- CONDITION_INFO: PKA-N-HiBiT qHTS, SDR assay; average maximal response
Where a name gives a salt, the structure may show the parent alone.
Classify by measured SDR Ave Max Response: yes if it is equal to or exceeds -7, no if it is smaller.

> print(dat)
                                   compound  category.label
1  COc1cc(N2CCOCC2)ccc1Nc1ncc(Cl)c(Nc2ccccc2NS(C)(=O)=O)n1 [CZC 54252 HCl]             yes
2  CC[C@@](C)(Nc1ccnc(-c2c[nH]c3ncccc23)n1)C(=O)NCC(F)(F)F             yes
3        C/C(O)=C(\C#N)C(=O)Nc1cc(Br)ccc1Br              no
4  Cc1cc(NC(=O)c2ccc(C)c(Nc3nccc(-c4cccnc4)n3)c2)cc(-n2cnc(C)c2)c1             yes
5  O=C1CCC(N2C(=O)c3ccccc3C2=O)C(=O)N1 (stereo not drawn) [Thalidomide]              no

# input Record Cn1c(=O)c2c(ncn2C)n(C)c1=O ; criterion: SDR Ave Max Response no lower than -7. Met?
# output no

----------
- SYSTEM_TESTED: FLuc-C-HiBiT (Photinus pyralis)
- Construct: firefly luciferase with C-terminal HiBiT tag, E. coli expressed
- METHOD: biochemical
- CONDITION_INFO: enzyme activity, 10 uM ATP; read-out: IC50 or SDR50 (mM) / FLuc E
Please respond with reported IC50 for every item in the list.

// below: answered compounds
> print(dat)
                              smiles.string                    system.tested   measured
1  Cc1ccc(Cl)cc1-n1ncc2c(N3CCC(C)CC3)ncnc21  FLuc-C-HiBiT (Photinus pyralis)  > 0.03 mM
2  Cc1ccc(Cl)cc1-n1ncc2c(N3CCC(C(N)=O)CC3)ncnc21  FLuc-C-HiBiT (Photinus pyralis)  > 0.03 mM

We next turn to a different compound, shown below.
# input I'd like to know its IC50. The compound in question is Cc1ccc2nc(-c3ccc(NC(=O)COc4ccc(Cl)c(C)c4)cc3)sc2c1
# output > 0.03 mM

----------
- SYSTEM_TESTED: FLuc-C-HiBiT (Photinus pyralis, UniProt P08659)
- Construct: firefly luciferase with C-terminal HiBiT tag, E. coli expressed
- Sequence (P08659 whole entry, looked up): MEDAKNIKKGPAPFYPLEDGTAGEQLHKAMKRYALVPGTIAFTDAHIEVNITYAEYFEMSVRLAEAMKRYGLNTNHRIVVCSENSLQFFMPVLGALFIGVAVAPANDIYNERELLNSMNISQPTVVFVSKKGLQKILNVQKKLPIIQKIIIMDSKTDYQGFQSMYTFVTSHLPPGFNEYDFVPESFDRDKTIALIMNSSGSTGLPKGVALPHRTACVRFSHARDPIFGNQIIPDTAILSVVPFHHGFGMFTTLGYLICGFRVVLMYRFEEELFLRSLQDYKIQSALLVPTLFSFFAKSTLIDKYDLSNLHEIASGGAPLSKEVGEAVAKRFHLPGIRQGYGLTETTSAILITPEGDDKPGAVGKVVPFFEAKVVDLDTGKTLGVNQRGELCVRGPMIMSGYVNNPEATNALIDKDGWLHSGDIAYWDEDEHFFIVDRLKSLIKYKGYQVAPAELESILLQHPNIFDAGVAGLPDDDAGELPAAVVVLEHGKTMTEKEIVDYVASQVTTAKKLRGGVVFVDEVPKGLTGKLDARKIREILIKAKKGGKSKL
- METHOD: biochemical
- CONDITION_INFO: enzyme activity, 10 uM ATP; read-out: IC50 or SDR50 (mM) / FLuc E
Decision: IC50 beneath 10 µM gives t; IC50 meeting or exceeding 10 µM gives f.

Known results for compounds:
> print(dat)
                              smiles.string                             system.tested  category.label
1  O=C(O)C1CN(Cc2ccc(-c3nc4cc(Cc5ccccc5F)ccc4s3)c(F)c2)C1  FLuc-C-HiBiT (Photinus pyralis, UniProt P08659)               f
2  COc1ccc(CC(=O)Nc2ccc(-c3nc4ccccc4s3)c(C)c2)cc1OC  FLuc-C-HiBiT (Photinus pyralis, UniProt P08659)               f
3  CC1=C[C@@H](CNC(=O)c2ccncc2)[C@H](C(C)C)C[C@H]1CC(=O)N1CCOCC1  FLuc-C-HiBiT (Photinus pyralis, UniProt P08659)               f
4        O=C1c2cnc(-c3ccccc3)nc2OCCN1CC1CC1  FLuc-C-HiBiT (Photinus pyralis, UniProt P08659)               f
5  O=C(c1ccc(CSc2nc3ccncc3n2Cc2ccccc2F)cc1)N1CCCCC1  FLuc-C-HiBiT (Photinus pyralis, UniProt P08659)               f
6          CCOc1ccc(Nc2nc(-c3ccccc3)no2)cc1  FLuc-C-HiBiT (Photinus pyralis, UniProt P08659)               t
7  Cc1ccc(-n2nc(C)c([C@H]3C=C[C@@H](O)C3)c2C)cc1Cl  FLuc-C-HiBiT (Photinus pyralis, UniProt P08659)               f
8  C[C@@H]1C(=O)O[C@H]2[C@H]1CC[C@@]1(C)Cc3sc(NCCc4ccccn4)nc3[C@@H](C)[C@H]21  FLuc-C-HiBiT (Photinus pyralis, UniProt P08659)               f

# input # check: IC50 < 10 µM for CSCc1nc(-c2ccncc2)nn1Cc1ccc2c(c1)OCO2
# output f

# input Given the entry CCOC(=O)N1CCc2c(sc(NCc3sccc3C)c2C(=O)Nc2ccc(OC)cc2OC)C1 , would its reported IC50 be below 10 µM?
# output t

# input Problem: For the compound CCOC(=O)N1CCc2c(sc(NCc3ccc(OCC)cc3)c2C(=O)Nc2ccc(OC)cc2OC)C1 , is IC50 under 10 µM?
# output t

# input is_below(IC50, 10 µM) for Oc1cc(-c2nc3ccccc3s2)cc2c1OCCN(Cc1cccn1-c1ccccn1)C2 ?
# output f

# input Threshold test, IC50 < 10 µM: Fc1ccc(Nc2nc(-c3ccccc3)no2)cc1
# output t

# input For this compound, is IC50 lower than 10 µM? CCc1ccc2nc(N3CCC(C(=O)O)CC3)sc2c1
# output t

# input Is 10 µM strictly greater than the compound's reported IC50? compound: Cc1ccccc1-c1noc(-c2ccc(N3CCCC3)c([N+](=O)[O-])c2)n1
# output f

# input Does the reported IC50 of O=C(Nc1onc2c1CCCC2)c1ccccc1 stay below 10 µM?
# output f

----------
- SYSTEM_TESTED: FLuc-C-HiBiT (Photinus pyralis)
- Construct: firefly luciferase with C-terminal HiBiT tag, E. coli expressed
- METHOD: biochemical
- CONDITION_INFO: enzyme activity, 10 uM ATP; read-out: IC50 or SDR50 (mM) / FLuc E
QUANTITY_KIND: IC50

Look at each compound and report its IC50.
1. Cc1c(C(=O)Nc2cccc(-c3nc4ccccc4s3)c2)oc2ccccc12
2. CCOc1ccccc1C(=O)Nc1nc2c(s1)CC(C)CC2 (stereo not shown)
3. CCOc1ccc(C(=O)Nc2ccc(-c3nc4ccccc4s3)cc2)cc1[N+](=O)[O-]
4. O=C(NCc1ccncc1)C1CCN(C(=O)c2ncn3c2COC(c2ccc(F)cc2)C3)CC1 (stereo not shown)

# output
["> 0.03 mM", "0.00442 mM", "> 0.03 mM", "0.0111 mM"]

Give IC50 for each listed item.
1. O=C1c2cnc(-c3ccccc3)nc2OCCN1Cc1ccccc1
2. Cc1ccc(C(=O)NC2CC2)cc1-c1ccc2[nH]ncc2c1
3. Cc1ccc(-n2nc(C)c([C@@H]3C=C[C@@H](NC(=O)COCC(=O)O)C3)c2C)cc1Cl

# output
1. > 0.03 mM
2. > 0.03 mM
3. > 0.03 mM

----------
- SYSTEM_TESTED: FLuc-C-HiBiT (Photinus pyralis, UniProt P08659)
- Construct: firefly luciferase with C-terminal HiBiT tag, E. coli expressed
- METHOD: biochemical
- CONDITION_INFO: enzyme activity, 10 uM ATP; read-out: IC50 or SDR50 (mM) / FLuc E
Can you tell me IC50 for the items I'm about to list?
Answers are plain numbers, in mM.

Would you please look over these solved cases?
> print(dat)
                                   molecule   u  measured
1  Cc1ccccc1-c1ccc(COc2ccc3c(cnn3CCC(=O)O)c2)cc1  mM    0.0161
2  Cc1ccc(/C=C/C(=O)N2CCC(c3nc4ccccc4o3)CC2)cc1  mM    0.0111

The following molecules each have a reported value; give each one's IC50.
1. Cc1ccc(-n2ncc3c(N4CCCC(C)C4)ncnc32)cc1C (stereo not drawn)
2. COc1ccc(C)cc1NC(=O)c1ccc2c(Cl)c3c(nc2c1)CCC3
3. O=C(NCc1ccco1)C1CCN(C(=O)c2ncn3c2COC(c2ccccc2)C3)CC1 (stereo not drawn)
4. CC(CCn1cccn1)NC(=O)c1csc2nc(-c3ccc(C(F)(F)F)cc3)cn12 (stereo not drawn)
5. COc1ccc(F)cc1-c1ccc(COc2ccc3c(cnn3CCC(=O)O)c2)cc1

# output
[0.000157, 0.00111, 0.00248, 0.00989, 0.018]

----------
- SYSTEM_TESTED: FLuc-C-HiBiT (Photinus pyralis)
- Construct: firefly luciferase with C-terminal HiBiT tag, E. coli expressed
- METHOD: biochemical
- CONDITION_INFO: enzyme activity, 10 uM ATP; read-out: IC50 or SDR50 (mM) / FLuc E
Field: IC50. Provide a value for each of the molecules that follow.
One number for each entry, in µM.

> print(dat)
                                    molecule  quantity.kind  measured
 1  O=C(NCCn1cccc1-c1nc(-c2ccc3c(c2)OCO3)no1)c1ccc(Cl)cc1 [NCGC00445582-01]           IC50      9.89
 2  CC(=O)NC1(C)CN(Cc2ccc(-c3ccccc3OCc3ccccc3)s2)C1 [NCGC00410438-01]           IC50      22.7
 3  CCc1ccccc1Nc1nc(-c2cccc(OC)c2OC)no1 [NCGC00422354-01]           IC50      11.1
 4  COc1ccc(CN2CCOc3nc(-c4cc5ccccc5o4)ncc3C2=O)cc1 [NCGC00413542-01]           IC50      8.05
 5  CN1CCN(C(=O)COc2ccc(-c3nc4ccccc4s3)cc2)CC1 [NCGC00042506-01]           IC50     0.495
 6  Cc1ccc(C)c(N2CCN(C(=O)c3ccc(NC(=O)c4nsc5ccccc45)cc3)CC2)c1 [NCGC00134456-01]           IC50      9.89
 7  CCOCC1(C)COc2ccc(C(=O)Nc3ccccc3)cc2N1 (stereo not shown) [NCGC00416079-01]           IC50        18
 8  N#Cc1c(-n2ncnc2-c2cccc(Cl)c2)sc2c1CCCCC2 [NCGC00099368-01]           IC50      1.97
 9  COc1ccc(NC(=O)Nc2ccc(C)n(CC(=O)N3CCCCCC3)c2=O)cc1 [NCGC00430834-01]           IC50      9.89
10  O=C(O)c1cccc(-c2noc(-c3ccc(F)cc3)n2)c1 [NCGC00168761-01]           IC50   0.00442

Give me IC50 for each of these molecules, listed below.
1. CC1(Cc2ccc3c(c2)OCO3)CCCN(C(=O)c2ccc3ncsc3c2)C1 (stereo not shown) [NCGC00444241-01]
2. O=C(O)c1cccc(-c2noc(-c3cccc([N+](=O)[O-])c3)n2)c1 [NCGC00253775-01]

# output
9.89
0.007

Can you give me IC50 for all of these, one by one?
1. CCC(CC)C(=O)Nc1cccc(-c2nc3ccccc3s2)c1 [NCGC00119163-01]
2. c1cncc(Nc2cc3c(cn2)CN(Cc2cc[nH]n2)CCN3)c1 [NCGC00411048-01]
3. Cc1ccc2nc(-c3ccc(NC(=O)COc4ccccc4C(C)(C)C)cc3)sc2c1 [NCGC00098265-01]
4. Fc1ccc2[nH]c([C@H]3CCN(Cc4ccccc4F)C3)nc2c1 [NCGC00391187-01]
5. COc1ccc(-c2nnc(SC(C)C(=O)O)o2)cc1 (stereo not shown) [NCGC00103120-01]
6. C[C@@H]1C(=O)O[C@H]2[C@H]1CC[C@@]1(C)Cc3sc(NC(=O)c4c(F)cccc4F)nc3[C@@H](C)[C@H]21 [NCGC00421654-01]

# output
1. 15.7
2. 18
3. 14
4. 14.3
5. 14
6. 9.89

# input Sample CNc1ccc2cc(-c3nc4ccc(C(=O)O)cc4s3)ccc2c1 [NCGC00655706-01] — what was its IC50?
# output 0.007
